Data provenance: PubChem BioAssay AID2060892

# Test system: HOP-62 complex spheroids with HUVEC/MSC, viability
# assay.remarks: Anticancer human tumor HOP-62 cell line growth inhibition [RAS];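 note: spheroids exposed to agents for seven days before readout; 100% = DMSO vehicle control viability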
# condition.label: second compound 0.00949 µM; first compound 1 µM; hits give low values
The label is TRUE for viability, T/C below 50% and FALSE for viability, T/C equal to or exceeding 50%.

Incoming: Lab log: compare recorded viability, T/C with 50%; is it strictly lower for Cc1nc(N2CCC3(CC2)COC(C)C3N)c(CO)nc1Sc1ccnc(N)c1Cl (stereo not drawn) + CCn1c(-c2cccnc2C(C)OC)c2c3cc(ccc31)N1CCOC(CC(NC(=O)C(C(C)C)N(C)C(=O)C3(F)CCN(C(=O)C#CC(C)(C)N(C)C)CC3)C(=O)N3CCCC(N3)C(=O)OCC(C)(C)C2)C1 ?
Outgoing: TRUE

Incoming: Please let me know if CC1(O)CCCC1n1c(=O)c(C(F)F)cc2cnc(NC3CCN(S(C)(=O)=O)CC3)nc21 (stereo not drawn) + CCn1c(-c2cc(N3CCN(C)CC3)cnc2C(C)OC)c2c3cc(ccc31)-c1csc(n1)CC(NC(=O)C1CC1C)C(=O)N1CCCC(N1)C(=O)OCC(C)(C)C2 shows viability, T/C below 50%.
Outgoing: TRUE

Incoming: Does this molecule meet the criterion viability, T/C < 50%? CC(C)NCC(C(=O)N1CCN(c2ncnc3c2C(C)CC3O)CC1)c1ccc(Cl)cc1 (stereo not drawn) + CCn1c(-c2cccnc2C(C)OC)c2c3cc(ccc31)N1CCOC(CC(NC(=O)C(C(C)C)N(C)C(=O)C3(F)CCN(C(=O)C#CC(C)(C)N(C)C)CC3)C(=O)N3CCCC(N3)C(=O)OCC(C)(C)C2)C1
Outgoing: FALSE

Incoming: Find out if reported viability, T/C for C[C@@H](NC(=O)c1ncnc(N)c1Cl)c1ncc(C(=O)Nc2cc(C(F)(F)F)c(Cl)cn2)s1 + CCn1c(-c2cccnc2C(C)OC)c2c3cc(ccc31)N1CCOC(CC(NC(=O)C(C(C)C)N(C)C(=O)C3(F)CCN(C(=O)C#CC(C)(C)N(C)C)CC3)C(=O)N3CCCC(N3)C(=O)OCC(C)(C)C2)C1 is less than 50%
Outgoing: FALSE

Incoming: For this molecule, is viability, T/C lower than 50%? CCC(CC)c1cc(NC2CCC(N)C2)n2nccc2n1 (stereo not drawn) + CCn1c(-c2cccnc2C(C)OC)c2c3cc(ccc31)N1CCOC(CC(NC(=O)C(C(C)C)N(C)C(=O)C3(F)CCN(C(=O)C#CC(C)(C)N(C)C)CC3)C(=O)N3CCCC(N3)C(=O)OCC(C)(C)C2)C1
Outgoing: FALSE

Incoming: Please determine if NC1c2ccccc2OC12CCN(c1cnc3c(N4CCCc5ncccc54)n[nH]c3n1)CC2 (stereo not drawn) + CCn1c(-c2cc(N3CCN(C)CC3)cnc2C(C)OC)c2c3cc(ccc31)-c1csc(n1)CC(NC(=O)C1CC1C)C(=O)N1CCCC(N1)C(=O)OCC(C)(C)C2 is below 50% in terms of viability, T/C.
Outgoing: TRUE

Incoming: Does the reported viability, T/C of the following molecule sit strictly below 50%? C=CC(=O)Nc1cc(Nc2nccc(-c3cn(C)c4ccccc34)n2)c(OC)cc1N(C)CCN(C)C + CCn1c(-c2cccnc2C(C)OC)c2c3cc(ccc31)N1CCOC(CC(NC(=O)C(C(C)C)N(C)C(=O)C3(F)CCN(C(=O)C#CC(C)(C)N(C)C)CC3)C(=O)N3CCCC(N3)C(=O)OCC(C)(C)C2)C1
Outgoing: FALSE

Incoming: Consider the molecule CC(=O)OC12COC1CC(O)C1(C)C(=O)C(O)C3=C(C)C(OC(=O)C(O)C(NC(=O)OC(C)(C)C)c4ccccc4)CC(O)(C(OC(=O)c4ccccc4)C21)C3(C)C (stereo not drawn) + CCn1c(-c2cccnc2C(C)OC)c2c3cc(ccc31)N1CCOC(CC(NC(=O)C(C(C)C)N(C)C(=O)C3(F)CCN(C(=O)C#CC(C)(C)N(C)C)CC3)C(=O)N3CCCC(N3)C(=O)OCC(C)(C)C2)C1 . Is its viability, T/C strictly less than 50%?
Outgoing: TRUE

* * *

For each entry below, report its viability, T/C value.
# Tested on: HOP-62 complex spheroids with HUVEC/MSC, viability
# assay.remarks: Anticancer human tumor HOP-62 cell line growth inhibition [RAS];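 note: spheroids exposed to agents for seven days before readout; 100% = DMSO vehicle control viability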
# condition.label: second compound 1 µM; first compound 1 µM; hits give low values
# Excerpt: RAS pathway inhibitors in Combinations in Complex Spheroids A high-throughput screen of multi-cell type tumor spheroids was designed to identify active combinations of RAS pathway inhibitors and targeted small molecules. Complex spheroids include a stromal component modeled by human endothelial cells (HUVEC) and fibroblasts modeled by human mesenchymal stem cells (MSCs). […] Compounds. […] If the clinical Cmax for an agent had not been determined, the highest concentration tested was 10 microM. […]
// units = %; emit number, no label

Incoming: So what does the record say about viability, T/C for NC1c2ccccc2OC12CCN(c1cnc3c(N4CCCc5ncccc54)n[nH]c3n1)CC2 (centres undefined) + C=CC(=O)N1CCN(c2nc(OCC3CCCN3C)nc3c(F)c(-c4nc(N)cc(C)c4C(F)(F)F)c(Cl)cc23)C(C)C1 ?
Outgoing: 9.35

Incoming: # viability, T/C lookup, item NC1c2ccccc2OC12CCN(c1cnc3c(N4CCCc5ncccc54)n[nH]c3n1)CC2 (centres undefined) + C#Cc1c(F)ccc2cc(O)cc(-c3ncc4c(N5CC6CCC(C5)N6)nc(OCC56CCCN5CC(F)C6)nc4c3F)c12
Outgoing: 19.3

Incoming: // query viability, T/C value for entry O=C(c1ccc(F)c(F)c1Nc1ccc(I)cc1F)N1CC(O)([C@@H]2CCCCN2)C1 + C#Cc1c(F)ccc2cc(O)cc(-c3ncc4c(N5CC6CCC(C5)N6)nc(OCC56CCCN5CC(F)C6)nc4c3F)c12
Outgoing: 25.3

Incoming: I would be grateful if you could share the reported viability, T/C for CC(=O)OC12COC1CC(O)C1(C)C(=O)C(O)C3=C(C)C(OC(=O)C(O)C(NC(=O)OC(C)(C)C)c4ccccc4)CC(O)(C(OC(=O)c4ccccc4)C21)C3(C)C (centres undefined) + C=CC(=O)N1CCN(c2nc(OCC3CCCN3C)nc3c(F)c(-c4nc(N)cc(C)c4C(F)(F)F)c(Cl)cc23)C(C)C1 .
Outgoing: 14.2

* * *

# Test system: HOP-62 complex spheroids with HUVEC/MSC, viability
# assay.remarks: Anticancer human tumor HOP-62 cell line growth inhibition [RAS]; active = viability on the fitted dose curve at most 10% of control; inactive = the rest;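 note: spheroids exposed to agents for seven days before readout; 100% = DMSO vehicle control viability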
# condition.label: second compound 0.03 µM; first compound 0.0949 µM
Valid outcomes are listed here; reply with one: Y for active, N for inactive

Incoming: Dear colleague, could you share the recorded outcome for CC1(C)CCC(Nc2ncc(C(F)(F)F)c(-c3c[nH]c4c(P(C)(C)=O)c(C#N)ccc34)n2)CN1 (centres undefined) + CCn1c(-c2cc(N3CCN(C)CC3)cnc2C(C)OC)c2c3cc(ccc31)-c1csc(n1)CC(NC(=O)C1CC1C)C(=O)N1CCCC(N1)C(=O)OCC(C)(C)C2 when you have a moment?
Outgoing: N

Incoming: Lab log entry: CCc1c2c(nc3ccc(O)cc13)-c1cc3c(c(=O)n1C2)COC(=O)[C@]3(O)CC + CCn1c(-c2cccnc2C(C)OC)c2c3cc(ccc31)N1CCOC(CC(NC(=O)C(C(C)C)N(C)C(=O)C3(F)CCN(C(=O)C#CC(C)(C)N(C)C)CC3)C(=O)N3CCCC(N3)C(=O)OCC(C)(C)C2)C1 — outcome as called in the assay?
Outgoing: Y

Incoming: Dear all, I need the recorded test outcome for CC1(C)CCC(Nc2ncc(C(F)(F)F)c(-c3c[nH]c4c(P(C)(C)=O)c(C#N)ccc34)n2)CN1 (centres undefined) + CCn1c(-c2cccnc2C(C)OC)c2c3cc(ccc31)N1CCOC(CC(NC(=O)C(C(C)C)N(C)C(=O)C3(F)CCN(C(=O)C#CC(C)(C)N(C)C)CC3)C(=O)N3CCCC(N3)C(=O)OCC(C)(C)C2)C1 , thank you.
Outgoing: N

Incoming: Which outcome was entered for the molecule CCc1c2c(nc3ccc(O)cc13)-c1cc3c(c(=O)n1C2)COC(=O)[C@]3(O)CC + CCn1c(-c2cc(N3CCN(C)CC3)cnc2C(C)OC)c2c3cc(ccc31)-c1csc(n1)CC(NC(=O)C1CC1C)C(=O)N1CCCC(N1)C(=O)OCC(C)(C)C2 in this test?
Outgoing: N

* * *

So I've got a bunch of compounds here, and I need their viability, T/C values.
# System: HOP-62 complex spheroids with HUVEC/MSC, viability
# assay.remarks: Anticancer human tumor HOP-62 cell line growth inhibition [RAS];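 note: spheroids exposed to agents for seven days before readout; 100% = DMSO vehicle control viability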
# condition.label: second compound 0.0949 µM; first compound 3.16 µM; hits give low values
Just the number in %, nothing appended.

Incoming: I have this compound here, Cc1nc(N2CCC3(CC2)COC(C)C3N)c(CO)nc1Sc1ccnc(N)c1Cl (configuration not stated) + CCn1c(-c2cccnc2C(C)OC)c2c3cc(ccc31)N1CCOC(CC(NC(=O)C(C(C)C)N(C)C(=O)C3(F)CCN(C(=O)C#CC(C)(C)N(C)C)CC3)C(=O)N3CCCC(N3)C(=O)OCC(C)(C)C2)C1 , and I need its recorded viability, T/C.
Outgoing: 19.8

Incoming: Entry under review: NC1c2ccccc2OC12CCN(c1cnc3c(N4CCCc5ncccc54)n[nH]c3n1)CC2 (configuration not stated) + CCn1c(-c2cccnc2C(C)OC)c2c3cc(ccc31)N1CCOC(CC(NC(=O)C(C(C)C)N(C)C(=O)C3(F)CCN(C(=O)C#CC(C)(C)N(C)C)CC3)C(=O)N3CCCC(N3)C(=O)OCC(C)(C)C2)C1 . Reported viability, T/C?
Outgoing: 11.5
